Values compiled from ChEMBL document CHEMBL3244101.

Test system: Canis familiaris
Experiment: Antiarrhythmic activity in anesthetized acute myocardial infarction dog model assessed as normal ECG complexes at 5 mg/kg, iv administered 10 mins prior to infarction measured during 1-hr postinfarction period (reference value: 19%)
Format: functional, Canis lupus familiaris, Heart
Quantity Name: Activity (%)

Compound | Target | Quantity Name | Readout Number
O=C1NC(=O)C(c2ccccc2)(c2ccccc2)N1 [PHENYTOIN] | Canis familiaris | Activity | 40
Br.FC(F)(c1ccccc1)C(F)(F)c1cccc2c1CNC2 | Canis familiaris | Activity | 71
CN(C)Cc1ccccc1C(F)(F)C(F)(F)c1ccccc1.Cl | Canis familiaris | Activity | 75
C=C[C@H]1CN2CC[C@H]1C[C@@H]2[C@@H](O)c1ccnc2ccc(OC)cc12 [QUINIDINE] | Canis familiaris | Activity | 46
